Test system: KYSE-520 cell line;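 further: growth inhibition of human KYSE-520 cells, read out with a viability assay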
Assay: cells
Format: functional, cell-based
Conditions: Homo sapiens
Description: SANGER: Inhibition of human KYSE-520 cell growth in a cell viability assay.
List of IC50 values.

Below, 3 compounds whose answers are already recorded.
1) O=S(=O)(O)c1ccc2cc(/N=N/c3cc(S(=O)(=O)O)c4cccnc4c3O)ccc2c1 | > 16 µM
2) CS(=O)(=O)N1CCN(Cc2cc3nc(-c4cccc5[nH]ncc45)nc(N4CCOCC4)c3s2)CC1 | > 4 µM
3) CC1(C)CCC(c2ccc(Cl)cc2)=C(CN2CCN(c3ccc(C(=O)NS(=O)(=O)c4ccc(N[C@H](CCN5CCOCC5)CSc5ccccc5)c(S(=O)(=O)C(F)(F)F)c4)cc3)CC2)C1 | > 2 µM

--- query ---
For the compound `Cc1ccc(-n2nc(C(C)(C)C)cc2NC(=O)Nc2ccc(OCCN3CCOCC3)c3ccccc23)cc1` , give its measured IC50 value.
> 10 µM

---

Tested on: HGC-27;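 further: growth inhibition of human HGC-27 cells, read out in a cell viability assay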
Test: cells
Format: functional, cell-based
Conditions: Homo sapiens
Description: SANGER: Inhibition of human HGC-27 cell growth in a cell viability assay.
pIC50: −log10 of the molar value.
parameter: pIC50

Below, 2 molecules whose answers are already recorded.
1) COC(=O)[C@H](CCSC)NC(=O)c1ccc(NC[C@@H](N)CS)cc1-c1ccccc1 | < 5.99
2) CO[C@@H]1[C@H](N(C)C(=O)c2ccccc2)C[C@H]2O[C@]1(C)n1c3ccccc3c3c4c(c5c6ccccc6n2c5c31)C(=O)NC4 | < 6.29

--- query ---
For the molecule `Cc1ccc(-n2nc(C(C)(C)C)cc2NC(=O)Nc2ccc(OCCN3CCOCC3)c3ccccc23)cc1` , give its measured pIC50 value.
< 5.00

---

Tested on: NBsusSR;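 further: growth inhibition of the human cell line, read out with a cell viability assay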
Assay: cells
Type: functional, cell-based
Details: Homo sapiens
Description: SANGER: Inhibition of human NBsusSR cell growth in a cell viability assay.
parameter: IC50

1. Cc1ccc(-n2nc(C(C)(C)C)cc2NC(=O)Nc2ccc(OCCN3CCOCC3)c3ccccc23)cc1 | > 10 µM
2. NC(=O)c1ccc(N(C(N)=O)c2c(F)cccc2F)nc1-c1ccc(F)cc1F | > 2 µM

For the compound `CC1(C)CCC(c2ccc(Cl)cc2)=C(CN2CCN(c3ccc(C(=O)NS(=O)(=O)c4ccc(N[C@H](CCN5CCOCC5)CSc5ccccc5)c(S(=O)(=O)C(F)(F)F)c4)cc3)CC2)C1` , give its measured IC50 value.
> 2 µM

---

List of IC50 values.
Test system: PANC-03-27
Test: cells
Assay type: functional, cell-based
Details: Homo sapiens
Description: SANGER: Inhibition of human PANC-03-27 cell growth in a cell viability assay.

1. NC(=O)c1ccc(N(C(N)=O)c2c(F)cccc2F)nc1-c1ccc(F)cc1F | > 2 µM

For the molecule `Cc1ccc(C(=O)Nc2ccc(CN3CCN(C)CC3)c(C(F)(F)F)c2)cc1C#Cc1cnc2cccnn12` , give its measured IC50 value.
> 0.512 µM

For the molecule `CN(C)CCOc1ccc(-c2nc(-c3ccncc3)c(-c3ccc4c(c3)CC/C4=N\O)[nH]2)cc1` , give its measured IC50 value.
> 5 µM

For the molecule `NC1(c2ccc(-c3nc4ccn5c(=O)[nH]nc5c4cc3-c3ccccc3)cc2)CCC1` , give its measured IC50 value.
> 4 µM

For the molecule `O=S(=O)(O)c1ccc2cc(/N=N/c3cc(S(=O)(=O)O)c4cccnc4c3O)ccc2c1` , give its measured IC50 value.
> 16 µM

For the molecule `CCCCCCCCCCCC1=C(O)C(=O)C=C(O)C1=O` , give its measured IC50 value.
> 32 µM
